# assayed.system: Ubiquitin-activating enzyme e1, putative (Leishmania donovani (strain BPK282A1)) (UniProt E9BSI1)
# Sequence (E9BSI1 as listed by the source): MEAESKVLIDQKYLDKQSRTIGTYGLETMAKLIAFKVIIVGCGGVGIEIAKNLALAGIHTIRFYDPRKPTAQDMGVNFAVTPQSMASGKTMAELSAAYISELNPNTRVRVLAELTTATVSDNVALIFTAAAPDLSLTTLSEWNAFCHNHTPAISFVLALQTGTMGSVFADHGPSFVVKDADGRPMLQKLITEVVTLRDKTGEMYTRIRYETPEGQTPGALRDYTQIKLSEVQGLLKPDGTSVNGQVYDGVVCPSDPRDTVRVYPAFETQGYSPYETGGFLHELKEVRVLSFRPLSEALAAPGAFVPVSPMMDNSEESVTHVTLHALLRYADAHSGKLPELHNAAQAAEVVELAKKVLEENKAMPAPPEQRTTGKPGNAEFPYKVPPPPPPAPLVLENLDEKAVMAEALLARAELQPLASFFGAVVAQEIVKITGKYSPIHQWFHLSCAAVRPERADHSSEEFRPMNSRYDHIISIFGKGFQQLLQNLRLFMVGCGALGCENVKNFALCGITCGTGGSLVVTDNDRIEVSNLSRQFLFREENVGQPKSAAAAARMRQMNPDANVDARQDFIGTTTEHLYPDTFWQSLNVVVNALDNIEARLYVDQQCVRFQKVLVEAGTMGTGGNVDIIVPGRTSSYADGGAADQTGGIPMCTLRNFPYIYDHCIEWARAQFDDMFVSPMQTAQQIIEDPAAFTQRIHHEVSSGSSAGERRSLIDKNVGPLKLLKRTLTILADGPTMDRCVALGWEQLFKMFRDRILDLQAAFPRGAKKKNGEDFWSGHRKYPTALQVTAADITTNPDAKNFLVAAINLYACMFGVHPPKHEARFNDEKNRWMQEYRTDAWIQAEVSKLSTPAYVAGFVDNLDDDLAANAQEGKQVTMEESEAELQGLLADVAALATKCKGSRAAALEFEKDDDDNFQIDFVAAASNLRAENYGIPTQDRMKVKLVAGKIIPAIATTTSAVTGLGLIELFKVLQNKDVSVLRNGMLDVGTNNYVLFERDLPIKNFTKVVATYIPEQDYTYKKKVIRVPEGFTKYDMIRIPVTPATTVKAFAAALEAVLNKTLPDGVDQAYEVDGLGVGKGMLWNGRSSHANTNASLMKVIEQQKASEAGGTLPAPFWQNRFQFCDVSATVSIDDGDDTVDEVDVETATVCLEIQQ
# method: Leishmania donovani Ubiquitin Activating Enzyme (LdE1)
# Type: functional
# Set-up: scale not given: direction of the effect not stated beside the values
# stated.conditions: 30 µM
Results with a measured potency or affinity are listed apart.
In this section we review reported Percent Effect values for a set of compounds.
parameter: Percent Effect (%)

* Cc1ccccc1C1(CNC(=O)NCCc2nnc3n2CCC3)CC1 | -5.26
* COc1cc(C)c(CN2CCC3(CC2)C(C(=O)O)CC(=O)N3C)cc1C (configuration not stated) | 16
* CN1CC(=O)N(c2cnn(C)c2)CC12CCN(Cc1nccn1C)C2 (configuration not stated) | 8.22
* c1ccc2c(N3CCCC3Cn3cccn3)ncnc2c1 (configuration not stated) | 21.6
* CN(C)CC1CSCCCN1C(=O)c1ccc(=O)[nH]c1 (configuration not stated) | 2.6
* Cc1cc(C)c2cc(CNCC3CCCO3)c3nn(C)c(=O)n3c2c1 (configuration not stated) | 9.46
* CC(=O)NCCc1ccc(S(=O)(=O)N(CC(C)C)C(C)C)s1 | 4.17
* CC1c2ncc(CN3CCN(C)CC3)n2CCN1Cc1cccnc1 (configuration not stated) | 8
* CC(C)Nc1ncc(CN2C[C@@H](CN3CCC(O)CC3)[C@@H](CO)C2)cn1 | 2.67
* CSc1ccsc1C(=O)N1CCN(CC(C)(C)O)CC1 | 8.86
* c1ccc(-n2nnnc2CN2CCCC(Cn3cncn3)C2)cc1 (configuration not stated) | 6.33
* CC(C)CN1CCCC2(CCN(C(=O)c3cnccn3)C2)C1 (configuration not stated) | -2.6

* * *

# assayed.system: Chromo domain-containing protein 1 (Saccharomyces cerevisiae (strain ATCC 204508 / S288c) (Baker's yeast))
# method: ScCHD-1 Enzyme Inhibition Assay; also: in the data most compounds retested in dose-response had high values
# Type: functional
# Parameters: scale not given: direction of the effect not stated beside the values
# stated.conditions: 30 µM
parameter: Percent Effect (%)

- Cc1cccc(C(=O)NCc2ccnc(N(C)C)c2)n1: 8
- Cc1ccc(CNCc2nnc3n2CCCC3C(F)(F)F)o1 (stereo unspecified): -5.76
- CCN(Cc1ccco1)C(=O)c1cc(OC)c2c(c1)OCCO2: -1.38
- CCOc1cc(C(=O)N2CCCC(c3noc(C)n3)C2)ccn1 (stereo unspecified): -2.64
- Cn1cnnc1C1CCCN(C(=O)NCc2cc[nH]n2)C1 (stereo unspecified): -8.86
- O=C(CS(=O)(=O)CC1CCCCC1)NC1CCCCNC1=O (stereo unspecified): 83.8
- O=C(CSc1ccncc1)N1C[C@H]2CC[C@@H]1CN(Cc1cccnc1)C2: -4
- O=C(NCc1nnc2n1CCCCC2)N1CCc2sccc2C1: -27
- CN(C)C(=O)CN1C[C@@H]2CC[C@H](C1)N(Cc1cc(F)ccc1F)C2: -5.68
- CC(C1CC1)N(C(=O)NCCCn1nc2ccccn2c1=O)C1CC1 (stereo unspecified): -6.77
- Cc1ccc(NS(=O)(=O)CC2=NC(=O)n3cccc3C2=O)cc1: -2.6

* * *

# Species: Homo sapiens
# method: To identify inhibition of the IFN signalling (Jak-Stat) pathway via expression of an eGFP reporter gene under the control of an IFN-stimulated response element (ISRE) containing MxA promoter.
# Assay type: functional
# Design: scale not given: direction of the effect not stated beside the values
# stated.conditions: 30 µM
parameter: Percent Effect (%)

* COCCN1CCC2(CCCN(C(=O)c3cnoc3C)C2)C1=O (stereo not given) | 0.796
* COCCNC(=O)C(C)n1cc(Br)cn1 (stereo not given) | 5.02
* Cc1ccc(CNC(C)c2ccc3[nH]c(=O)[nH]c3c2)s1 (stereo not given) | 14.9
* Cc1ccoc1C(=O)NC1CCN(Cc2csc3c(F)cccc23)CC1 | 17.2
* CC(=O)Nc1ncc(S(=O)(=O)Nc2ccc(F)cc2F)s1 | 12.9
* COc1cccc2c1OCC(CNC(=O)CSc1nc(N)n[nH]1)C2 (stereo not given) | 4.85
* Cc1cc(N2CCN(C(=O)c3cc(Cl)c[nH]3)CC2)nc(N)n1 | 17.5
* CC(NC(=O)NCCCc1n[nH]c(N)c1C#N)c1ccccc1 (stereo not given) | 7.81
* CCc1nccn1C1CCCN(C(=O)c2ccc(C(=O)NC)nc2)C1 (stereo not given) | 18.1
* O=C(NCCNCC1CNc2ccnn2C1)c1ccc(F)cc1 (stereo not given) | -0.126
* Cc1ncccc1Oc1nccnc1C1CCN(C(C)C)CC1 | -0.668
* COc1ccc(NC(=O)CCC2CCCN(Cc3ncon3)C2)cc1Cl (stereo not given) | -6.37
* CC(C)c1ncncc1C(=O)N1CCN(Cc2cscn2)CC1 | 5.44
* CCn1cc(C(=O)NCc2csc(Br)c2)cn1 | 13.6
* O=C(CCO)N1CCOC2(CCCN(C(=O)c3ccco3)C2)C1 (stereo not given) | -33.1
* COc1ccccc1S(=O)(=O)Nc1ccc2c(C(=O)O)c[nH]c2c1 | 14.3
* CC(=O)Nc1nc(C(=O)NC(C)c2ccc(F)cc2)cs1 (stereo not given) | -15.4
* CC1CN(C)CCN1C(=O)c1ccn(-c2cccc(Cl)c2)n1 (stereo not given) | -0.574
* Cc1ccc(CNC(=O)N2CCCCC2CCNS(C)(=O)=O)cc1 (stereo not given) | 23.6
* CNc1cc(N2CCCC2CNCc2ccccn2)ncn1 (stereo not given) | 24.8
* Cc1cnn(CC2CN(Cc3nc(N)c4ccccc4n3)CCO2)c1 (stereo not given) | 10.5
* CCNC(c1cccnc1)c1cc(C)cc(C)c1 (stereo not given) | -28.2
* NC(=O)C1CCN(c2nc3nccc(-c4ccccn4)c3c(=O)[nH]2)CC1 | 2.93
* CN(CC(=O)NC1(C#N)CCCC1)C1CCCN(c2cccnn2)C1 (stereo not given) | -30.1
* COc1ccc(CN(Cc2cncn2C)CC2CCCO2)cc1OC (stereo not given) | -8.46
